Source of measurements: paper PMC5042876

# study_system: PntM F232A (Streptomyces arenae, UniProt E3VWI3, F232A)
# Sequence (E3VWI3 1-398 F232A): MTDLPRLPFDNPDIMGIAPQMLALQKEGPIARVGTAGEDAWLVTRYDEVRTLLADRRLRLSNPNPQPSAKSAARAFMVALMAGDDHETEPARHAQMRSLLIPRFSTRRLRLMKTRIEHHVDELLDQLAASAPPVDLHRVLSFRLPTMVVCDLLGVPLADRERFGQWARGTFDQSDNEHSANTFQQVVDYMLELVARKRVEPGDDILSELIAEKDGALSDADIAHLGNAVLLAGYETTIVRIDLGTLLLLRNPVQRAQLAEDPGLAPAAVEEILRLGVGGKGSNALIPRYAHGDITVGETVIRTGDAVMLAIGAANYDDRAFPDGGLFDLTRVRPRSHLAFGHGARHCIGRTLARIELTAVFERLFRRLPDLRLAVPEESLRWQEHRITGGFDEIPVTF
# assay_method_text: Substrate binding assay
readout_label: Kd (µM)
Reply with just the number (in µM).

Item: CC1(C)C[C@H]2C=C(C(=O)O)[C@@H]3COC(=O)[C@]4(CO4)[C@]23C1 | System: PntM F232A (Streptomyces arenae, UniProt E3VWI3, F232A) | Kd: 270

====

# study_system: PntM M81A (Streptomyces arenae, UniProt E3VWI3, M81A)
# assay_method_text: Substrate binding assay
readout_label: Kd (µM)
Entry rule: numbers only, all in µM.

Lab book: Kd of CC1(C)C[C@H]2C=C(C(=O)O)[C@@H]3COC(=O)[C@]4(CO4)[C@]23C1 noted as 340

====

# study_system: PntM M81C-BME (Streptomyces arenae, UniProt E3VWI3, M81C)
# assay_method_text: Substrate binding assay
readout_label: Kd (µM)
Supply the numeric figure in µM, leaving out any unit text.

Looking up CC1(C)C[C@H]2C=C(C(=O)O)[C@@H]3COC(=O)[C@]4(CO4)[C@]23C1 , I found its Kd recorded as 31

====

# study_system: PntM-F232G (Streptomyces arenae, UniProt E3VWI3, F232G)
# assay_method_text: Substrate binding assay
readout_label: Kd (µM)
// units = µM; emit number, no label

Record CC1(C)C[C@H]2C=C(C(=O)O)[C@@H]3COC(=O)[C@]4(CO4)[C@]23C1 ; system PntM-F232G (Streptomyces arenae, UniProt E3VWI3, F232G); Kd = 225

====

# study_system: PntM M77S (Streptomyces arenae, UniProt E3VWI3, M77S)
# assay_method_text: Substrate binding assay
readout_label: Kd (µM)
Quick reminder: number only, in µM, skip the unit.

Item: CC1(C)C[C@H]2C=C(C(=O)O)[C@@H]3COC(=O)[C@]4(CO4)[C@]23C1 | Kd: 115

====

# study_system: PntM F232L (Streptomyces arenae, UniProt E3VWI3, F232L)
# Sequence (E3VWI3 1-398 F232L): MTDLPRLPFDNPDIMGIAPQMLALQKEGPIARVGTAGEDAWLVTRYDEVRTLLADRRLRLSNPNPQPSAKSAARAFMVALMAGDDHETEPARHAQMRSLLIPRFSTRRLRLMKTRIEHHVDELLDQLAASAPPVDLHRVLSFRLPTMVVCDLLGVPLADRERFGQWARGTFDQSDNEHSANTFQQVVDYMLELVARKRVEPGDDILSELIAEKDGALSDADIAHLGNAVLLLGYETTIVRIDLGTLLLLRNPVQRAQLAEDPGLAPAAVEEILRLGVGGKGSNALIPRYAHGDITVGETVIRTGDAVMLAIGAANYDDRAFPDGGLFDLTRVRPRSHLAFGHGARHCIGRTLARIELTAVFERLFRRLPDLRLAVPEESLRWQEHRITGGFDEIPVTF
# assay_method_text: Substrate binding assay
readout_label: Kd (µM)
Note: unit µM is implicit; provide only the numeric part.

// Kd value for CC1(C)C[C@H]2C=C(C(=O)O)[C@@H]3COC(=O)[C@]4(CO4)[C@]23C1 : 160
